Kindly state EC50 for each of the entries shown.
Biological target: Gal4 DNA binding domain fused to the LBD of LXRβ in HEK293 cells (Homo sapiens (Human))
Assay: cell-based
Conditions: agonist mode; read-out: Cell LXRβ EC50
Numbers only, in nM.

Field: EC50. Fill in for each record below.
1. CC(F)(F)[C@H]1CC[C@@H](CN2CCN(c3cccc(S(C)(=O)=O)c3)C[C@H]2c2ccccc2)CC1 (single isomer, unassigned)
2. NS(=O)(=O)c1cccc(N2CCN(C[C@H]3CC[C@@H](C(F)(F)F)CC3)[C@@H](c3ccccc3)C2)c1 (single isomer, unassigned)
3. CS(=O)(=O)c1cc(N2CCN(C[C@H]3CC[C@@H](C(F)(F)F)CC3)[C@@H](c3ccccc3)C2)ccc1C(N)=O (single isomer, unassigned)

*A*
1: 1500; 2: 120; 3: 630

====

Molecular target: LXR α LBD protein (Homo sapiens (Human), UniProt Q13133)
Sequence (Q13133 209-447): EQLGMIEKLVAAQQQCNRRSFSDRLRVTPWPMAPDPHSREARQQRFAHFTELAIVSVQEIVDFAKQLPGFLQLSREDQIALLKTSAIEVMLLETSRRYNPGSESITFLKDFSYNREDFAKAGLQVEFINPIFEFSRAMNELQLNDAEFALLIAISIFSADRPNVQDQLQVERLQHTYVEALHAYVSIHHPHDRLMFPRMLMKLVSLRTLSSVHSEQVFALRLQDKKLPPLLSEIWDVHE
Assay: LXR α radioligand binding assay (SPA, competition with [3H]TO901317)
Settings: read-out: LXRα Binding Ki
Would you kindly list Ki for each of these compounds?
Answers are plain numbers, in nM.

{"compound": "CC(C)[C@@H]1CN(c2ccc(CO)c(S(C)(=O)=O)c2)CCN1c1nc(C(F)(F)F)c(C(=O)N(C)C)s1 [17-34]", "Ki (nM)": 152}
{"compound": "CC(C)(O)CC1CN(c2ccc(F)c(S(C)(=O)=O)c2)CCN1c1ccc(C(F)(F)F)cn1 (stereo not drawn) [34-1]", "Ki (nM)": 1240}
{"compound": "CC(C)[C@@H]1CN(c2cc(F)c(CO)c(S(C)(=O)=O)c2)CCN1c1ncc(CO)c(C(F)(F)F)n1 [Cpd No 11-6]", "Ki (nM)": 71}
{"compound": "CCOC(=O)c1cnc(N2CCN(c3cccc(S(C)(=O)=O)c3)C[C@H]2c2nc(C)cs2)nc1C(F)(F)F [9-8]", "Ki (nM)": 2340}
{"compound": "CC(C)[C@@H]1CN(c2cccc(S(C)(=O)=O)c2)CCN1c1nccc(OC(F)F)n1 [44-2]", "Ki (nM)": 520}

State the recorded Ki for every item in the following list.
1. CC(C)[C@@H]1CN(c2ccc(CO)c(S(C)(=O)=O)c2)CCN1c1ncc(C(C)(C)C#N)c(C(F)(F)F)n1 [Cpd No 25-1]
2. CS(=O)(=O)c1cc(N2CCN(C[C@H]3CC[C@H](C(F)(F)F)CC3)[C@@H](c3ccccc3)C2)ccc1C#N (single isomer, unassigned) [50-4]
3. CC[C@@H](O)c1cnc(N2CCN(c3ccc(F)c(S(C)(=O)=O)c3)C[C@H]2C(C)C)nc1C(F)(F)F (single isomer, unassigned) [Cpd No 12-7]

*A*
[32, 2720, 82]

====

Target: Gal4 DNA binding domain fused to the LBD of LXRα in HEK293 cells (Homo sapiens (Human), UniProt Q13133)
Sequence (Q13133 209-447): as above
Test: LXR luciferase transcriptional reporter gene assay, agonist mode, LXRα
Type: cell-based
Details: agonist mode; read-out: Cell LXRα EC50
pEC50: −log10 of the molar value.
So basically: pEC50 at 6 or higher? That is yes (1). Lower than 6? That is no (0).

{"compound": "CC(C)[C@@H]1CN(c2ccc(F)c(S(C)(=O)=O)c2)CCN1c1ncc(CN2CCOCC2)c(C(F)(F)F)n1", "category": "no (0)"}
{"compound": "CS(=O)(=O)c1cccc(N2CCN(Cc3ccc(C(F)(F)F)nc3)C(c3ccc(Cl)cc3)C2)c1 (centres unmarked)", "category": "no (0)"}
{"compound": "COC(=O)c1cnc(N2CCN(c3ccc(F)c(S(C)(=O)=O)c3)C[C@H]2C(C)C)nc1C(F)(F)F", "category": "yes (1)"}

*Q* Evaluate CNS(=O)(=O)c1cc(N2CCN(c3ncc(C(C)O)c(C(F)(F)F)n3)[C@H](C(C)C)C2)ccc1F (some centres unmarked) : pEC50 at minimum 6?
*A* yes (1)

*Q* Can you check CO[C@@H](C)[C@@H]1CN(c2ccc(CO)c(S(C)(=O)=O)c2)CCN1c1ncc(CO)c(C(F)(F)F)n1 (single isomer, unassigned) next?
*A* no (0)

*Q* Repeat for the following compound: Cc1nnc(-c2ccc(N3CCN(c4ncc(CO)c(C(F)(F)F)n4)[C@H](C(C)C)C3)cc2S(C)(=O)=O)s1
*A* no (0)

*Q* Now the same for COC(=O)NCCCN(C)C(=O)c1cnc(N2CCN(c3ccc(F)c(S(C)(=O)=O)c3)C[C@H]2C(C)C)nc1C(F)(F)F
*A* no (0)

====

Biological target: LXR β LBD protein (Homo sapiens (Human))
Sequence (P55055 222-460 limits assumed): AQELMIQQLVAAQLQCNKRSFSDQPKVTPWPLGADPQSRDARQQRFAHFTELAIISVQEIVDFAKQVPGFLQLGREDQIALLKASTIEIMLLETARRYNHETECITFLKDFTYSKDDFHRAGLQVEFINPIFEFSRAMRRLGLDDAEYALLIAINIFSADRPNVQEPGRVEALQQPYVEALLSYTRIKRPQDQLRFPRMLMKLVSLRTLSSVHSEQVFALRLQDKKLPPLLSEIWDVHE
Assay: biochemical
Format: binding
Settings: read-out: LXRβ Binding Ki
quantity: Ki (nM)
Give bare numbers, in nM.

{"compound": "CC(C)[C@@H]1CN(c2ccc(F)c(S(C)(=O)=O)c2)CCN1c1ncc(C(=O)N(C)CCCO)c(C(F)(F)F)n1", "Ki (nM)": 548}
{"compound": "CC(C)[C@@H]1CN(c2ccc(C#N)c(S(C)(=O)=O)c2)CCN1c1ncc([C@@H](C)O)c(C(F)(F)F)n1 (single isomer, unassigned)", "Ki (nM)": 111}
{"compound": "CC(C)[C@@H]1CN(c2cccc(S(C)(=O)=O)c2)CCN1C(=O)OC(C)(C)C", "Ki (nM)": 157}
{"compound": "CCOC(=O)c1cnc(N2CCN(c3ccc(F)c(S(C)(=O)=O)c3)C[C@H]2C(C)C)nc1C", "Ki (nM)": 17}
{"compound": "CC(C)[C@@H]1CN(c2ccc(F)c(S(C)(=O)=O)c2)CCN1c1ncc(C(=O)N2CC(NC(=O)OC(C)(C)C)C2)c(C(F)(F)F)n1", "Ki (nM)": 111}

// input: 2 compounds below; output: Ki for each
1. COCCN(C)C(=O)c1cnc(N2CCN(c3ccc(F)c(S(C)(=O)=O)c3)C[C@H]2C(C)C)nc1C
2. C[C@]1(c2ccccc2)CN(c2cccc(S(C)(=O)=O)c2)CCN1Cc1ccc(C(F)(F)F)c(Cl)c1 (single isomer, unassigned)

*A*
2330
32

====

Target: Gal4 DNA binding domain fused to the LBD of LXRβ in HEK293 cells (Homo sapiens (Human), UniProt P55055)
Sequence (P55055 222-460 limits assumed): as above
Assay: cell-based
Conditions: Biological Test Example 2, agonist mode
Assignment: determine reported Cell LXRβ efficacy for the given compounds.

Observe how each entry below is paired with its result.
{"compound": "CO[C@H]1CC[C@@H](CN2CCN(c3ccc(CO)c(S(C)(=O)=O)c3)C[C@@H]2C(C)C)CC1 (single isomer, unassigned)", "Cell LXRβ efficacy": "42 (84) %"}
{"compound": "CC(C)[C@H]1CC[C@H](CN2CCN(c3ccc(CO)c(S(C)(=O)=O)c3)C[C@@H]2c2ccccc2)CC1 (single isomer, unassigned)", "Cell LXRβ efficacy": "23%"}

I need Cell LXRβ efficacy for every entry listed below, if you could help.
1. CS(=O)(=O)c1cccc(N2CCN(CC3(F)CCN(CC(F)(F)F)CC3)[C@@H](c3ccc(F)cc3)C2)c1
2. CS(=O)(=O)c1cccc(N2CCN(C[C@H]3CC[C@@]4(CC3)CC4(F)F)[C@H](c3ccccc3)C2)c1 (single isomer, unassigned)
3. CS(=O)(=O)c1cccc(N2CCN(C[C@@H]3CCN(CC(F)(F)F)C3)[C@H](c3ccccc3)C2)c1 (single isomer, unassigned)

*A*
1272 (13) %
58%
4682 (8) %

*Q* Need Cell LXRβ efficacy, item CO[C@]1(C(F)(F)F)CC[C@@H](CN2CCN(c3ccc(CO)c(S(C)(=O)=O)c3)C[C@@H]2C(C)C)CC1 (single isomer, unassigned)
*A* 1 (115) %

====

Molecular target: UniProt:Q13133
Assay: Human LXRα coactivator recruitment FRET assay, agonist mode
Type: biochemical
Details: agonist mode
Could you mark each record fulfilled if its FRET LXRα efficacy falls strictly under 40%, and not fulfilled if it equals or exceeds it?

These recorded examples may help you get a feel for the data.
{"compound": "CS(=O)(=O)c1cccc(N2CCN(C[C@H]3CC[C@H](C(F)(F)F)CC3)[C@H](c3ccccc3)C2)c1 (single isomer, unassigned) [48-32]", "category": "not fulfilled"}
{"compound": "CC(C)COC(=O)N1CCN(c2cccc(S(C)(=O)=O)c2)CC1c1ccccc1 (stereo not shown) [5-5]", "category": "fulfilled"}
{"compound": "CC(C)COC(=O)N1CCN(c2cccc(S(C)(=O)=O)c2)C[C@H]1C(C)C [5-7]", "category": "not fulfilled"}
{"compound": "CC(C)[C@@H]1CN(c2ccc(C#N)c(S(C)(=O)=O)c2)CCN1c1ccc(C(F)(F)F)cn1 [7-37]", "category": "not fulfilled"}

*Q* Quick check: FRET LXRα efficacy of Cc1ccccc1[C@@H]1CN(c2cccc(S(C)(=O)=O)c2)CCN1Cc1ccc(C(F)(F)F)nc1 (single isomer, unassigned) [46-45] under 40%?
*A* not fulfilled

*Q* Next compound up: CC(C)[C@@H]1CN(c2ccc(F)c(S(C)(=O)=O)c2Cl)CCN1c1ncc(Cl)c(C2CC2)n1 [Cpd No 22-2]
*A* fulfilled
